assay_overview: Photostability: xenon arc weathering of chromophore solutions, LCMS analysis
Type: physicochemical
condition_notes: 3 wt % in Rhodiasolv IRIS; xenon arc, 82° C. bp; linearly interpolated to 0.5 MJ/m2 @ 340 nm
Description: Photostability (resistance to light-induced degradation) may be measured by the amount of time required for the compound, or a material comprising the compound, to degrade to a certain point under light exposure. The light exposure may be constant, or cyclic. The light transmittance or absorbance of the compound, or material comprising the compound, may be determined at both a light state and dark state prior to testing, to determine a contrast ratio. […]
endpoint_name: Minus-2HF (%)
Note: unit % is implicit; provide only the numeric part.

Input: Return Minus-2HF (%) (reported value) for this compound: COc1ccc2c(C3=C(c4cc(-c5ccc(C(C)(C)C)s5)sc4-c4ccc(C(C)(C)C)s4)C(F)(F)C(F)(F)C3(F)F)c(-c3ccc(C(C)(C)C)cc3)oc2c1
Output: 1.9

Input: Return Minus-2HF (%) (reported value) for this compound: COc1cc2oc(-c3ccc(C(C)(C)C)cc3)c(C3=C(c4cc(-c5cccs5)sc4-c4cccs4)C(F)(F)C(F)(F)C3(F)F)c2cc1OC
Output: 2.1

Input: Return Minus-2HF (%) (reported value) for this compound: COc1cc2oc(-c3ccc(C(C)(C)C)cc3)c(C3=C(c4cc(-c5ccc(C(C)(C)C)s5)sc4-c4sc(C(C)(C)C)cc4C)C(F)(F)C(F)(F)C3(F)F)c2cc1OC
Output: 0.0

Input: Return Minus-2HF (%) (reported value) for this compound: COc1ccc2oc(-c3ccc(C(C)(C)C)cc3)c(C3=C(c4cc(-c5cc6c(s5)C(C)(C)CCC6(C)C)sc4-c4cc5c(s4)C(C)(C)CCC5(C)C)C(F)(F)C(F)(F)C3(F)F)c2c1
Output: 1.4

Input: Return Minus-2HF (%) (reported value) for this compound: COc1cc2oc(-c3ccc(C(C)(C)C)cc3)c(C3=C(c4cc(-c5ccc(C(C)(C)C)s5)sc4-c4ccc(C(C)(C)C)s4)C(F)(F)C(F)(F)C3(F)F)c2cc1OC
Output: 1.0

---

assay_overview: Photostability: xenon arc weathering of chromophore solutions, LCMS analysis
Assay type: physicochemical
condition_notes: 10 wt % in Rhodiasolv IRIS; xenon arc, 82° C. bp; linearly interpolated to 0.5 MJ/m2 @ 340 nm
Please provide measured Minus-HF (%) for the entries that follow.
Note: unit % is implicit; provide only the numeric part.

Input: Return Minus-HF (%) (reported value) for this compound: CCOC(=O)CCCOc1cc2oc(-c3ccc(C(C)(C)C)cc3)c(C3=C(c4cc(-c5ccc(C(C)(C)C)s5)sc4-c4ccc(C(C)(C)C)s4)C(F)(F)C(F)(F)C3(F)F)c2cc1OCCCC(=O)OCC [Chromophore S374]
Output: 26.5

Input: Return Minus-HF (%) (reported value) for this compound: CCOC(=O)CCCOc1cc2oc(-c3ccc(C(C)(C)C)cc3)c(C3=C(c4cc(-c5ccc(C(C)(C)C)s5)sc4-c4sc(C(C)(C)C)cc4C)C(F)(F)C(F)(F)C3(F)F)c2cc1OCCCC(=O)OCC [Chromophore S383]
Output: 0.0

Input: Return Minus-HF (%) (reported value) for this compound: CCOC(=O)CCCOc1cc2oc(-c3ccc(C(C)(C)C)cc3)c(C3=C(c4cc(-c5sc(C(C)(C)C)cc5C)sc4-c4sc(C(C)(C)C)cc4C)C(F)(F)C(F)(F)C3(F)F)c2cc1OCCCC(=O)OCC [Chromophore S384]
Output: 0.0

Input: Return Minus-HF (%) (reported value) for this compound: CC(C)(C)c1ccc(-c2oc3cc(OCCN4C(=O)CCC4=O)c(OCCN4C(=O)CCC4=O)cc3c2C2=C(c3cc(-c4cc(C(C)(C)C)cs4)sc3-c3cc(C(C)(C)C)cs3)C(F)(F)C(F)(F)C2(F)F)cc1
Output: 0.0

Input: Return Minus-HF (%) (reported value) for this compound: CC(=O)Oc1cc2oc(-c3ccc(C(C)(C)C)cc3)c(C3=C(c4cc(-c5ccc(C(C)(C)C)s5)sc4-c4ccc(C(C)(C)C)s4)C(F)(F)C(F)(F)C3(F)F)c2cc1OC(C)=O [Chromophore S367]
Output: 56.0
